- studyTarget: EGFR (human), P00533 [WT]
- Sequence (P00533 whole entry, looked up): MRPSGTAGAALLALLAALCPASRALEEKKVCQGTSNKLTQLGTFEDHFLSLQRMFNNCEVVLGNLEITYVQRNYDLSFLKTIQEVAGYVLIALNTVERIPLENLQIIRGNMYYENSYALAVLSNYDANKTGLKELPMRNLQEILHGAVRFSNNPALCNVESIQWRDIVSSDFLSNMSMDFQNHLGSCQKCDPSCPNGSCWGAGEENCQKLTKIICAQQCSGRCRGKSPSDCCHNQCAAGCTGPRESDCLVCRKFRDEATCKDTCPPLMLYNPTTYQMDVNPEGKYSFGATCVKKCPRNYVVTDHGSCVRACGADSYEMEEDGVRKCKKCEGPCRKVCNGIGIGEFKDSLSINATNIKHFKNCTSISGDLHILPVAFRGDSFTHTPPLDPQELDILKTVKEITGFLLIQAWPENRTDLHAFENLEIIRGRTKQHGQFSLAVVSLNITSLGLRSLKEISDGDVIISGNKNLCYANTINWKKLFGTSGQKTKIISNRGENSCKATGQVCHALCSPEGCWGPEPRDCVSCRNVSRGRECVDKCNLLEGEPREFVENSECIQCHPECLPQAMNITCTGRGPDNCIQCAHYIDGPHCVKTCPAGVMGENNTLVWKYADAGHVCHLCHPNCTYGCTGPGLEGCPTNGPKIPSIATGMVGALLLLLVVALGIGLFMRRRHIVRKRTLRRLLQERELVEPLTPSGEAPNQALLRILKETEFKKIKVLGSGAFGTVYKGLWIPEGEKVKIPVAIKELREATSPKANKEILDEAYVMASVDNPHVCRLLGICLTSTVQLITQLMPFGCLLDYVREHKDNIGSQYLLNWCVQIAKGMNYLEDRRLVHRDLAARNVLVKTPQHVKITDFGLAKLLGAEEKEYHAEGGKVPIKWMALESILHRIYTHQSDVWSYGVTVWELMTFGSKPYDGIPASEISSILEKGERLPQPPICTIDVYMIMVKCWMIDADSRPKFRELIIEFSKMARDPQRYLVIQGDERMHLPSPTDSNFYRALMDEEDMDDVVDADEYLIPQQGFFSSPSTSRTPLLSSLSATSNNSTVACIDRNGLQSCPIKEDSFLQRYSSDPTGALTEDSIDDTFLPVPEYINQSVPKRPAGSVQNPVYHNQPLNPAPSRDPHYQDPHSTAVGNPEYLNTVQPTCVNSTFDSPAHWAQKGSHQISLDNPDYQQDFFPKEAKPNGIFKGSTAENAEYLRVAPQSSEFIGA
- experimentalContext: a431
pIC50: −log10 of the molar value.
assayEndpoint: pIC50

smilesData: C=CC(=O)Nc1cccc(-n2c(=O)cc(C)c3cnc(Nc4ccc(O[C@H]5CCN(C)C5)cc4OC)nc32)c1
assayEndpoint: pIC50
measValue: 5.68

smilesData: C=CC(=O)Nc1cccc(-n2c(=O)cc(C)c3cnc(Nc4cn(C)nc4Cl)nc32)c1
assayEndpoint: pIC50
measValue: 5.54

smilesData: C=CC(=O)Nc1cccc(-n2c(=O)c(OC)c(C)c3cnc(Nc4ccc(N5CCN(C)CC5)cc4OC)nc32)c1
assayEndpoint: pIC50
measValue: 5.86

smilesData: C=CC(=O)Nc1cccc(-n2c(=O)cc(C)c3cnc(Nc4ccc(N(C)CCN(C)C)cc4C)nc32)c1
assayEndpoint: pIC50
measValue: 5.94

smilesData: C=CC(=O)Nc1cccc(-n2c(=O)cc(C)c3cnc(Nc4ccc(OCCCN(C)C)cc4)nc32)c1
assayEndpoint: pIC50
measValue: 5.81

smilesData: C=CC(=O)Nc1cccc(-n2c(=O)cc(C)c3cnc(Nc4ccc(N5CCN(C)CC5)c(F)c4)nc32)c1
assayEndpoint: pIC50
measValue: 5.90

smilesData: C=CC(=O)Nc1cccc(-n2c(=O)cc(C)c3cnc(Nc4ccc(OCCN(C)C)cc4F)nc32)c1
assayEndpoint: pIC50
measValue: 5.87
